These data points were gathered from paper PMC9637228.

assay-method-text: in vitro
assay-context: African green monkey, CC50, Table 2 test; Vero cells
measured-parameter: CC50

Request: // query CC50 value for entry CCN(CC)CCCC(C)Nc1ccnc2cc(Cl)ccc12 (stereo not shown)
Response: > 150 µM

----------
Measured CC50 at 120 h by item
assay-method-text: Cytotoxicity in uninfected, compound-treated MRC5 cells (Cell-Titer Glo)
assay-context: human, uninfected MRC5 lung fibroblast cells
Field format: number, assumed nM, no unit text.

item-smiles: COC(=O)C[C@](O)(CCCC(C)(C)O)C(=O)O[C@@H]1C(OC)=C[C@]23CCCN2CCc2cc4c(cc2[C@H]13)OCO4
CC50 at 120 h, nM: 167

Moving on to another compound below.
Request: Record request: CC50 at 120 h value, item "CC(C)C[C@H](NC(=O)[C@H](Cc1ccccc1)NC(=O)c1cnccn1)B(O)O"
Response: 591
